system: HCC-2998 colon; test: NCI tumour cell line growth inhibition, 48 h
Recorded TGI values for a group of compounds are listed next.
measured.attribute: TGI

compound=Cc1cc2c3c(c1)S(=O)(=O)c1cc(Cl)ccc1N3CCC2 target="HCC-2998 colon" measurement="> 100 µM"
compound=CCCCCCCCCCCC1=NC(C)(C)CN1C(C)C target="HCC-2998 colon" measurement="3.27 µM"
compound=Cc1ccc(/C=C/C(=O)c2ccc(F)cc2)s1 target="HCC-2998 colon" measurement="5.14 µM"
compound=NCC(=O)N[C@H]1c2ccsc2/C(=N/O)[C@H]1O target="HCC-2998 colon" measurement="> 100 µM"
compound=CCCCOC(=O)Nc1ccc(S(=O)(=O)Nc2c(Cl)cccc2Cl)cc1 target="HCC-2998 colon" measurement="43.4 µM"
compound="COC1C(OC(=O)/C=C/C=C/C=C/C=C/C(=O)O)CCC2(CO2)C1C1(C)OC1CC=C(C)C (stereo not given)" target="HCC-2998 colon" measurement="> 71.4 µM"
compound=CN1CCN(c2cc(F)c(NC3=C(Cl)C(=O)c4ncccc4C3=O)c(F)c2)CC1 target="HCC-2998 colon" measurement="3.55 µM"
compound=Nc1nc(N)c2cc(S(=O)(=O)c3cccc(C(F)(F)F)c3)ccc2n1 target="HCC-2998 colon" measurement="> 100 µM"
compound=O=C1c2ccccc2C(=O)N1C/C=N/NS(=O)(=O)c1cccc([N+](=O)[O-])c1 target="HCC-2998 colon" measurement="> 100 µM"
compound="COc1cc(/C=C2\\CC3C4CC=C5C[C@@H](O)CC[C@]5(C)C4CC[C@]3(C)\\C2=N\\O)cc(OC)c1OC (stereo not given in full)" target="HCC-2998 colon" measurement="45 µM"

* * *

Listing of recorded GI50 by entry.
test system: SK-MEL-28 melanoma; assay: NCI tumour cell line growth inhibition, 48 h
measured.attribute: GI50

compound=COc1ccccc1C1C(C#N)=C(N)SC(N)=C1C#N measurement="43.3 µM"
compound=Cc1ccc(NC(=O)c2ccoc2)cc1-c1ccc(C(=O)NCC2CC2)cc1 measurement="> 25 µM"
compound="COc1cccc2c1C(=O)c1c(O)c3c(c(O)c1C2=O)C[C@@](O)(/C(C)=N/NC(=O)c1cccc([N+](=O)[O-])c1)C[C@@H]3OC1CC(N)C(O)C(C)O1 (some centres not stated)" measurement="0.608 µM"
compound=N#CSc1c[nH]c2ccc(/C=C/C(=O)/C=C(O)/C=C/c3ccc4[nH]cc(SC#N)c4c3)cc12 measurement="2 µM"
compound=COc1ccc(-c2nn3ncccc3c2-c2ccnc(Nc3ccc(F)c(F)c3)n2)cc1 measurement="17.8 µM"
compound=CCOC(=O)c1sc2nc(=S)[nH]c(NC(N)=S)c2c1C measurement="19 µM"
compound=C/C(=C1\C(=O)Nc2ccccc21)c1cccc(/C(C)=C2/C(=O)Nc3ccccc32)n1 measurement="31.5 µM"
compound=Cc1ccc(/C=C/C(=O)c2ccc(F)cc2)s1 measurement="2.94 µM"
compound=C=CCn1c(SCC(=O)Nc2ccc(C(=O)/C=C/c3cc(OC)c(OC)c(OC)c3)cc2)nnc1-c1cc(OC)c(OC)c(OC)c1 measurement="3.29 µM"
compound=COc1cc2c(cc1OCCCCCOc1ccc(-c3nc4ccccc4s3)cc1)N=C[C@@H]1CCCN1C2=O measurement="8.74 µM"
compound=COc1ccc2c(c1)c(-c1ccc(-c3cn(C)c4ccc(OC)cc34)s1)cn2C measurement="> 100 µM"
compound=Oc1ccc(CCNc2nc3ccccc3c3[nH]c4ccccc4c23)cc1O measurement="5.85 µM"

* * *

test system: A498 renal; test: NCI tumour cell line growth inhibition, 48 h
measured.attribute: TGI

molecule=CN(C)CCNc1c(O)c2c(c(O)c1Cl)C(=O)C=CC2=O measurement="9.74 µM"
molecule=C[C@]12CC[C@H]3[C@@H](CC=C4C[C@@H](N5CCCC5)CC[C@@]43C)[C@@H]1C/C(=C\c1ccc([N+](=O)[O-])cc1)[C@@H]2O measurement="28.6 µM"
molecule=N#C/C=C(/NC(=O)Nc1ccccc1)N1CCCC1 measurement="> 100 µM"
molecule="CC(Nc1cccc(Cl)c1)c1ccncc1 (stereo not given)" measurement="> 100 µM"
molecule=O=c1[nH]c2c(C(F)(F)F)c(Cl)c(-c3ccccc3)nc2o1 measurement="> 100 µM"
molecule=CC1=C[C@H](C[C@]2(C)c3c(c4c(C)cccc4oc3=O)O[C@@H]2C)OC1=O measurement="> 100 µM"
molecule=CCOc1ccc2c(c1)[n+]([O-])c(-c1ccccc1)c(N)[n+]2[O-] measurement="> 100 µM"
molecule=COc1nc2ncc([C@@H](OC(C)=O)[C@@H](COC(C)=O)OC(C)=O)nc2c(=O)n1C measurement="> 100 µM"
molecule=O=C(Nc1ccc(Cl)cc1)c1cc(S(=O)(=O)Nc2nc3ncccc3[nH]2)c(SSc2cc(Cl)c(C(=O)Nc3ccc(Cl)cc3)cc2S(=O)(=O)Nc2nc3ncccc3[nH]2)cc1Cl measurement="> 100 µM"
molecule=CSC(=Nc1ccccc1)c1c(C)[nH]n(-c2ccccc2)c1=O measurement="> 100 µM"
molecule="O=C1CC(Nc2ccccc2)c2c(Cl)sc(Cl)c21 (stereo not given)" measurement="6.21 µM"
molecule=CCN(CC)C(=O)c1cccc2c(OC)ccc(OC)c12 measurement="> 100 µM"
molecule=O=C(c1ccccc1)c1nc2ccc(Cl)cc2cc1C(Br)Br measurement="9.45 µM"
molecule=CCOC(=O)Cn1nnc2ccc(Nc3nc4ccccc4nc3C(=O)OCC)cc21 measurement="> 100 µM"
molecule=COc1ccc(-c2nc(-c3nc4cc(Cl)c(Cl)cc4[nH]3)c3ccccn23)cc1 measurement="> 100 µM"
molecule=O=C(Nc1ccc(Nc2ccc3c(c2)C(=O)c2ccccc2C3=O)c2c1C(=O)c1ccccc1C2=O)c1ccccc1 measurement="> 100 µM"
molecule=COc1cc2c(cc1OCCCCCOc1ccc(-c3nc4ccccc4s3)cc1)N=C[C@@H]1CCCN1C2=O measurement="11.5 µM"
molecule=O=C1c2ccccc2C(=O)N1C/C=N/NS(=O)(=O)c1cccc([N+](=O)[O-])c1 measurement="> 100 µM"
molecule=Cc1cnoc1/N=C1\C=C(Nc2oncc2C)C(=O)c2ccccc21 measurement="> 100 µM"
molecule=CC(C)(Sc1cc(C(C)(C)C)c(O)c(C(C)(C)C)c1)Sc1cc(C(C)(C)C)c(O)c(C(C)(C)C)c1 measurement="> 100 µM"
molecule=Cc1cc2c3c(c1)S(=O)(=O)c1cc(Cl)ccc1N3CCC2 measurement="> 100 µM"
molecule=[Cu].c1ccc2c(c1)C1=NC2=NC2=NC(=NC3=NC(=NC4=NC(=N1)c1ccccc14)c1ccccc13)c1ccccc12 measurement="> 100 µM"
molecule="O=[N+]([O-])c1ccc(Cl)c(C2CC(c3cccc4ccccc34)=Nc3ccccc3S2=O)c1 (stereo not given)" measurement="64.7 µM"
molecule=O=C(CSc1nc2ccccc2c(=O)n1-c1ccccc1)N=Nc1c(O)[nH]c2ccc(Br)cc12 measurement="40.8 µM"
molecule="CC(C)C(Sc1nc(-c2ccccc2)c(-c2ccccc2)[nH]1)C(=O)N/N=C/c1ccc(Cl)cc1 (stereo not given)" measurement="43.2 µM"

* * *

test system: OVCAR-3 ovarian; test: NCI tumour cell line growth inhibition, 48 h; in the data active means GI50 below about 0.43 µM; inactive means the rest
Possible outcomes: active, inactive

structure=N#Cc1nc2cc(Cl)c(Cl)cc2nc1-c1ccc(Cl)cc1 label=inactive
structure=Cc1cc(NC(=O)NCCCOc2ccc(N3C(N)=NC(N)=NC3(C)C)cc2Cl)ccc1S(=O)(=O)F label=inactive
structure=Cc1cc2c(cc1Cl)SC(=Nc1ccc(Cl)cc1)N(S(=O)(=O)c1ccc(Br)s1)S2(=O)=O label=inactive
structure=COCCn1c(Nc2ccc(C(=O)NO)cc2)nc2ccccc21 label=inactive
structure=COc1cc(-c2csc(NC(=O)Nc3ccc(Cl)cc3)n2)cc(OC)c1OC label=inactive
structure=Cc1ccc(/C=C/C(=O)c2ccc(F)cc2)s1 label=inactive
structure=Oc1ccc(CCNc2nc3ccccc3c3[nH]c4ccccc4c23)cc1O label=inactive
structure=CN1CCN(CCCOC(=O)c2c3c(n4ccccc24)C(=O)c2ncccc2C3=O)CC1 label=active
structure=Clc1cccc(-c2cc(-c3ccc4c(c3)OCCO4)[nH]n2)c1 label=inactive
structure=[Cu].c1ccc2c(c1)C1=NC2=NC2=NC(=NC3=NC(=NC4=NC(=N1)c1ccccc14)c1ccccc13)c1ccccc12 label=inactive

* * *

The entries below come with measured TGI values attached.
tested on: MDA-N; assay: NCI tumour cell line growth inhibition, 48 h
measured.attribute: TGI

compound=Cc1cccc(C)c1NC(=S)N/C=C(\C#N)C(N)=O measurement="> 100 µM"
compound="COC1C(OC(=O)/C=C/C=C/C=C/C=C/C(=O)O)CCC2(CO2)C1C1(C)OC1CC=C(C)C (stereo not given)" measurement="> 100 µM"
compound=CCCCOC(=O)Nc1ccc(S(=O)(=O)Nc2c(Cl)cccc2Cl)cc1 measurement="> 100 µM"
compound=CN(C)c1ccc(-c2c(C#N)c(-c3ccccc3)n(NS(=O)(=O)c3ccccc3)c(=O)c2C#N)cc1 measurement="> 100 µM"
compound=CN(C)CCN1C(=O)c2cccc3cc(N)cc(c23)C1=O measurement="13.4 µM"
